Assay: NCI Yeast Anticancer Drug Screen. Data for the wt2 strain (AID 169);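 also: 0% = growth of vehicle-treated yeast cultures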
Settings: S. cerevisiae wt2 strain growth inhibition; at 11.0 µM; stronger effect = higher value
About 79,000 compounds went through this panel and 15% of them were active in at least one assay; those are over-represented in the sample as a whole.
result.type: growth inhibition (%)
Answer in %, number only, no unit symbol.

CC(=O)OCC1OC2OC(=O)NC2C(OC(C)=O)C1OC(C)=O (stereo unspecified); -3

Determine its reported growth inhibition: `O=C(O)c1cc2ccccc2c2c1C(=O)c1ccccc1-2`
49

// Input: `O=C(O)c1cc2ccc(Cl)cc2c(O)c1C1=CCCCC1` . Output its growth inhibition only.
23

Please look at this molecule and report its growth inhibition: `Cc1ccc(Sc2ccccc2N)cc1`
-17

Determine its reported growth inhibition: `Nc1ccc2c(c1)C(=O)c1ccc(F)cc1-2`
7

====

Assay: NCI Yeast Anticancer Drug Screen. Data for the rad14 strain (AID 159);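 also: 0% = growth of vehicle-treated control cultures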
Settings: S. cerevisiae rad14 strain growth inhibition; at 33.0 µM
Compounds without any hit were thinned out: in the full panel of roughly 79,000, 15% have a hit. Calls of active or inactive are those of the source. No stated cut-off is given here; in the data, active means growth inhibition above about 70%; inactive means the rest.
Answer with one of the outcomes given here: true (1) = active, false (0) = inactive

CCCCOCn1c(=O)[nH]c(=O)c2cc(Br)ccc21; false (0)
Brc1ccccc1-c1ncc(-c2ccccc2)o1; false (0)
C[C](C)(C)[Ge]([O][Ge]([c]1ccccc1)[c]1ccccc1)([O][Ge]([c]1ccccc1)[c]1ccccc1)[C](C)(C)C; false (0)
CC(=O)OC1CC2C(C)(C)C(=O)C=C[C@]2(C)C2CCC3(C)C(=CCC3[C@H](CO)C[C@H](O)C(=O)C(C)(C)O)[C@]12C (stereo not given in full); false (0)

Give the logged outcome of this assay for the following compound: `Cc1cc(C)nc(NS(=O)(=O)c2ccc(Nc3c4ccccc4nc4c(C(=O)NCCO)cccc34)cc2)n1`
false (0)

Short answer needed: outcome of this test for O=C(O)C1CC(c2ccccc2)=NN1c1ccccc1 (stereo not given) ?
false (0)

What was the test verdict on `COc1ccc(C(=O)Oc2ccccc2Br)cc1` ?
false (0)

Please indicate how the test categorized `O=C(Oc1ccc2c(c1)CN(Cc1ccccc1)CO2)c1ccccc1` .
false (0)

Would you mind telling me which call this test gave `O=c1c2ccccc2nc(-c2ccccc2)n1O` ?
true (1)

Can you look up the reported call for CC(=O)OCC(C)Cc1cc2c(cc1Br)OCO2 (stereo not given) for me?
false (0)

====

Assay: NCI Yeast Anticancer Drug Screen. Data for the bub3 strain (AID 167)
Conditions: S. cerevisiae bub3 mutant strain, at 1.2 µM, stronger effect = higher value
About 79,000 compounds went through this panel and 15% of them were active in at least one assay; those are over-represented in the sample as a whole.
Recorded growth inhibition values for a group of compounds are listed next.
Use % as the unit, but write only the number.

Consider the following illustrative entries.
Cc1ccc(Sc2ccccc2N)cc1; -6
O=c1c2ccccc2nc(-c2ccccc2)n1O; 12
CC[n+]1oc(C(=O)c2ccc(Cl)cc2)c(-c2ccccc2)c1-c1ccccc1.[Cl][Fe]([Cl])([Cl])[Cl]; -5
CCCCCCCCCCCCNC(C)=O; -9
O=c1ccc2ccccc2c2ccccc12; 5

Recall and state the measured growth inhibition for `CCCCCOC(=S)SC(=O)OCC` .
2

# return recorded growth inhibition for entry COC(=O)C1(C)CCc2c(ccc3ccccc23)C1=O (centres undefined)
37

Give a short answer stating reported growth inhibition for `CCCC/C([O-])=C1/C(=O)N(c2ccccc2)N=C1C.CCCC/C([O-])=C1/C(=O)N(c2ccccc2)N=C1C.[Cu+2]` .
-1

====

Experiment: NCI Yeast Anticancer Drug Screen. Data for the cln2 rad14 strain (AID 165);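 also: 0% = growth equal to vehicle treated cultures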
Details: S. cerevisiae cln2 rad14 strain, at 50.0 µM
Compounds without any hit were thinned out: in the full panel of roughly 79,000, 15% have a hit. Active and inactive are the calls of the source. No stated cut-off is given here; in the data, active means growth inhibition above about 70%; inactive means the rest.
The reply should name one outcome from true (1) (active), false (0) (inactive)

Oc1[nH]c2ccccc2c1N=NC(=S)N1CCCCC1; true (1)
O=C1OC(C2=CC(=O)c3ccccc3C2=O)C(Cl)=C1Cl (centres undefined); true (1)
Cn1c(-c2ccc(/C=N\N3CCN(/N=C/c4ccc(-c5c[n+]6ccccc6n5C)cc4)CC3)cc2)c[n+]2ccccc12; false (0)
Cc1c(C)c(C)c(CSC(=N)N)c(C)c1C; true (1)

Could you check what this test reported for `O=C(O)c1ccccc1/C=N/N=C1c2ccccc2-c2ccccc21` ?
false (0)

Which outcome did this test record for the molecule O=C(CC(C(=O)O)N1CCOCC1)c1ccccc1 (centres undefined) ?
false (0)

Lab log entry: `O=C(O)c1cc2ccc(Cl)cc2c(O)c1C1=CCCCC1` — outcome as called in the assay?
false (0)

So what was the verdict on `CCOc1ccc(NC(=O)C2=C(C)NC(C)=C(C(=O)Nc3ccc(OCC)cc3)C2c2cccc([N+](=O)[O-])c2)cc1` in this test?
false (0)

Dear colleague, could you share the recorded outcome for `OCC(CO)C(c1cccc2ccccc12)c1cccc2ccccc12` when you have a moment?
true (1)

GET /call?item= `O=C1C=C(Cl)C(=O)N1c1cccc(Cl)c1` returns the recorded outcome of this test.
true (1)

====

Experiment: NCI Yeast Anticancer Drug Screen. Data for the rad14 strain (AID 159);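 also: 0% = growth of vehicle-treated control cultures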
Conditions: S. cerevisiae rad14 strain growth inhibition; at 33.0 µM; stronger effect = higher value
Compounds without any hit were thinned out: in the full panel of roughly 79,000, 15% have a hit.
We use 10% as the dividing line for growth inhibition: on or above the line is fulfilled, below is not fulfilled.

Example entries begin here.
O=C(CC(=O)n1nc(-c2ccccc2)c(N=Nc2ccc(Cl)cc2)c1-c1ccccc1)Nc1cccc(Cl)c1; not fulfilled
COc1cc(C2SCC(=O)N2c2ccc(-c3ccc(-n4c(-c5ccccc5)nc5ccccc5c4=O)cc3)cc2)ccc1O (stereo not given); fulfilled
c1ccc2[nH]c(-c3cscn3)nc2c1; not fulfilled
CCCCNC1CCC2(SCCS2)c2[nH]c3ccccc3c21 (stereo not given); not fulfilled

Okay, now this molecule:
Does the reported growth inhibition for `CC(=O)Nc1ccc(/C=C/[N+](=O)[O-])cc1` fall at or above the 10% mark?
fulfilled

====

Entries and their growth inhibition
Experiment: NCI Yeast Anticancer Drug Screen. Data for the mlh1 strain (AID 171);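 also: 0% = growth of vehicle-treated control cultures of the same strain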
Details: S. cerevisiae mlh1 strain growth inhibition; at 3.7 µM; stronger effect = higher value
The panel holds about 79,000 compounds, 15% with a hit somewhere; the sample as a whole holds those more often.
# number only, unit % dropped from output

CC(=O)OCC1OC2OC(=O)NC2C(OC(C)=O)C1OC(C)=O (stereo not given); -3
O=C1C(Br)=C(c2ccccc2)O/C1=C/C(=O)c1ccc(Br)cc1; 1
N=C1N=Nc2nc(C3(c4nc5n(c4O)C(=N)N=N5)Cc4ccccc4C3=O)c(O)n21 (stereo not given); 5

Give the measured growth inhibition for `Oc1ccc(SCc2ccc(NCc3ccccc3)cc2)cc1`
-25

Look up and state reported growth inhibition for `CN(C)[C@@H]1C(=O)C(C(N)=O)=C(O)[C@@]2(O)C(=O)C3=C(O)c4c(O)cccc4C[C@H]3C[C@@H]12`
-11

====

Reported growth inhibition values for a set of compounds
Assay: NCI Yeast Anticancer Drug Screen. Data for the wt2 strain (AID 169);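 also: 0% = growth of vehicle-treated yeast cultures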
Details: S. cerevisiae wt2 strain growth inhibition; at 1.2 µM; stronger effect = higher value
This is part of a sample that, as a whole, favours compounds with a hit. Of some 79,000 tested, about 15% had one in any assay.
// return numeric value only (unit: %, not printed)

CC(O)=NC(Cc1ccc2ccccc2c1)C(O)=NC(Cc1ccc(Cl)cc1)C(O)=NC(Cc1c[nH]c2ccccc12)C(O)=NC(CO)C(O)=NC(Cc1ccc(O)cc1)C(O)=NC(CCCN=C(N)N)C(O)=NC(CC(C)C)C(O)=NC(CCCN=C(N)N)C(=O)N1CCCC1C(O)=NC(C)C(=N)O (centres undefined); -9
Cc1cc(O)c(C(C)C)cc1C1(c2cc(C(C)C)c(O)cc2C)OC(=O)c2ccccc21; -2

Please report the measured growth inhibition for `CCCCOP(=O)(CCCP(=O)(OCCCC)OCCCC)OCCCC`
-2

Using the record for `NC(=O)C(=O)NNc1ccccc1` , state its measured growth inhibition.
3

Kindly indicate its recorded growth inhibition. Item: `O=Cc1ccc2c(c1)C(=O)c1ccccc1C2=O`
0

Identify measured growth inhibition associated with `Cc1ccc([N+]2=NC(c3ccccc3)=NN(c3ccccc3)C2)cc1`
0

====

Assay: NCI Yeast Anticancer Drug Screen. Data for the wt1 strain (AID 149);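 also: 0% = growth of vehicle-treated wt1 cultures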
Details: S. cerevisiae wt1 strain (SPY 50644) growth inhibition; at 100.0 µM; stronger effect = higher value
Compounds without any hit were thinned out: in the full panel of roughly 79,000, 15% have a hit.
Decide by growth inhibition: equal to or exceeding 30% means condition met, less means condition not met.

O=C(NCCCNCCN1C(=O)c2cccc3cc([N+](=O)[O-])cc(c23)C1=O)c1cc(-c2ccccc2)nc2ccccc12; condition met
CC1(C)CC(=O)C(/C=N/c2nc(-c3ccccc3)cs2)=C(O)C1; condition met
S=c1[nH]c2cc3ccccc3cc2[nH]1; condition not met
CCC(C)(C)c1ccc(Oc2cccc(C(=O)O)c2)cc1; condition met
Cc1ccc2c3ccc4c(c3n(C)c2c1)C(=O)C=CC4=O; condition met

Reported growth inhibition at or above 30%? `COc1cc(O)c(O)c(C(C)(C)C)c1`
condition not met
